# Tested on: Cricetinae gen. sp.
# EXPERIMENTAL PROTOCOL: In vivo cholesterol absorption inhibitory activity using 7-day cholesterol-fed hamster model (expressed as percent change in serum cholesterol at 50 mg/kg/day)
# Type: functional, Cricetulus griseus
If the reported Change equals or exceeds -20%, assign fulfilled. If not, assign not fulfilled.

compound=COc1ccc(N2C(=O)[C@H](CCCc3ccccc3)[C@H]2c2ccc(N)cc2)cc1 class=fulfilled
compound=CC[C@@]1(CCCc2ccccc2)C(=O)N(c2ccc(OC)cc2)[C@@H]1c1ccccc1 class=fulfilled
compound=COc1ccc([C@@H]2[C@H](CCCCCc3ccccc3)C(=O)N2c2ccc(OC)cc2)cc1 class="not fulfilled"
compound="COc1ccc(N2C(=O)C(CCCc3ccccc3)C2(c2ccc(OC)cc2)c2ccc(OC)cc2)cc1 (centres undefined)" class=fulfilled
compound=COc1ccc([C@@H]2[C@@H](CCCc3ccccc3)C(=O)N2c2ccccc2)cc1 class="not fulfilled"
compound=COc1ccc(N2C(=O)[C@H](CCCc3ccccc3)[C@H]2c2ccc(NS(C)(=O)=O)cc2)cc1 class=fulfilled
compound=COc1ccc([C@@H]2[C@@H](CCCc3ccccc3)C(=O)N2Cc2ccccc2)cc1 class=fulfilled
compound=COc1ccc([C@@H]2[C@H](CCCCc3ccccc3)C(=O)N2c2ccc(OC)cc2)cc1 class="not fulfilled"
compound=COc1ccc([C@@H]2[C@@H](CCCc3ccccc3)C(=O)N2c2ccc(C)cc2)cc1 class="not fulfilled"
